experiment: AUC in Beagle dog at 3 mg/kg, po; assay type: ADME, organism-based, Canis lupus familiaris; design: dose 3 mg/kg, route oral; details: plasma
metric_name: AUC (µM·h)
The reply should be a number in µM·h, with the unit left off.

INPUT: Give its AUC value. Item: "CC(C)(C)CCN1CC[C@H](CNC(=O)c2cc(Cl)cc(Cl)c2)[C@H](F)C1"
OUTPUT: 9.5

----------
test: Plasma clearance in rhesus monkey at 1 mg/kg, iv; type: ADME, organism-based, Macaca mulatta; parameters: dose 1 mg/kg, route intravenous
metric_name: clearance (mL/min/kg)
Please state the figure in mL/min/kg; there is no need to write the unit.

INPUT: Fill in the blank: the reported clearance of "CC(C)(C)CCN1CC[C@H](CNC(=O)c2cc(Cl)cc(Cl)c2)[C@H](F)C1" is ____.
OUTPUT: 9.6

----------
assay: Cmax in Sprague-Dawley rat at 1 mg/kg, po; assay type: ADME, organism-based; parameters: dose 1 mg/kg, route oral; settings: in vivo
metric_name: Cmax (nM)
Your answer should be a plain number; it is taken to be in nM.

INPUT: Entry under review: "CC(C)(C)CCN1CC[C@H](CNC(=O)c2cc(Cl)cc(Cl)c2)[C@H](F)C1" . Reported Cmax?
OUTPUT: 33

----------
assay: Bioavailability in Wistar albino rat; assay type: ADME, organism-based; settings: in vivo
metric_name: bioavailability
Lab note: write values as number then unit, every time.

INPUT: Name the reported bioavailability value associated with the compound "CC(C)(C)CCN1CCC(CNC(=O)c2cc(Cl)cc(Cl)c2)CC1"
OUTPUT: 100%

----------
assay: Half life in Sprague-Dawley rat at 2 mg/kg, iv; format: ADME, organism-based; design: dose 2 mg/kg, route intravenous; conditions: in vivo
metric_name: half-life (h)
Write the answer as a number in h, unit excluded.

INPUT: Which value of half-life has been reported for "CC(C)(C)CCN1CC[C@H](CNC(=O)c2cc(Cl)cc(Cl)c2)[C@H](F)C1" in the records?
OUTPUT: 4.9

----------
experiment: Cmax in Beagle dog at 3 mg/kg, po; type: ADME, organism-based, Canis lupus familiaris; set-up: dose 3 mg/kg, route oral; conditions: in vivo
metric_name: Cmax
Answer shape: numeric part, then the unit.

INPUT: May I ask what Cmax has been recorded for "CC(C)(C)CCN1CC[C@H](CNC(=O)c2cc(Cl)cc(Cl)c2)[C@H](F)C1" ?
OUTPUT: 1180 nM

----------
test: Dissociation constant, pKa of the compound; assay type: physicochemical
Consider the following compounds; for each one, report its pKa.
# answer = number (no unit)

INPUT: Item under review: "CC(C)(C)C(=O)CN1CCC(CNC(=O)c2cc(Cl)cc(Cl)c2)CC1" . Reported pKa?
OUTPUT: 8

INPUT: For "CC(C)(C)CCN1CC[C@H](CNC(=O)c2cc(Cl)cc(Cl)c2)[C@H](F)C1" , what is its reported pKa?
OUTPUT: 7.9

INPUT: Using the record for "CC1(C)C[C@@H](CN2CCC(F)(CNC(=O)c3cc(Cl)cc(Cl)c3)CC2)CCO1" , report its pKa.
OUTPUT: 7.9
